- MEASUREMENT PROTOCOL: Cell Viability - LYMP2-012 (AID 982);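 also: cellular ATP by luciferase luminescence where a drop means cytotoxicity; cells exposed to compound for one day before reading; nearly all actives have a fitted effect of over 55% in size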
- EXPERIMENTAL SETUP: LYMP2-012 lymphoblastoid cell viability qHTS; series mostly up to 92.2 µM
Results filed as inconclusive are left out. The source made the active and inactive calls. Calls follow the shape of the dose curve; as a rule, active = well fitted cell-killing curve with a large enough effect; inconclusive = small, poorly fitted or top-dose-only effect; inactive = flat fitted curve, though single readings scatter.
Hello, when you answer, please use one of the following outcomes: T for active, F for inactive

Please review the following examples before continuing.
| COMPOUND | ASSIGNED CATEGORY |
| --- | --- |
| Cc1ccccc1 | F |
| CC(C)(C)NC(=O)[C@@H]1C[C@@H]2CCCC[C@@H]2CN1C[C@@H](O)[C@H](Cc1ccccc1)NC(=O)[C@H](CC(N)=O)NC(=O)c1ccc2ccccc2n1 | T |
| CCCCCCCC/C=C\CCCCCCCC(=O)O | F |
| CCOC(C)=O | F |
| IC(I)I | F |
| CC1=C2[C@@H]([C@H](C)CC[C@H]2/C=C(\C)C(=O)O)[C@H](O)C1 | F |
| O=CCCCC=O | T |
| O=S(=O)(O)O | F |

stdin: Assay result, entry CC(O)CO (centres undefined) — outcome?
stdout: F

* * *

- Tested on: CRL-7250
- MEASUREMENT PROTOCOL: Cytotoxic Profiling of Annotated Libraries Using Quantitative High-Throughput Screening (AID 1296008); also: % is scaled to controls: 0 for no effect and ±100 for the full control effect; nearly all actives have a fitted effect of over 60% in size
- EXPERIMENTAL SETUP: Five cell lines viability, CellTiter-Glo ATP luminescence, 48-72 h; stronger effect = lower value
Results filed as inconclusive are left out.
Quick reference for max response among some compounds
Report only the number, with the unit % understood.

The following compounds have reported results that may help.
| COMPOUND | VALUE UNIT | max response |
| --- | --- | --- |
| C[C@@H]1O[C@@H](O[C@@H]2[C@@H](O)[C@H](O[C@@H]3[C@@H](O)[C@@H](O)[C@H](O[C@H]4[C@H](OC(=O)[C@]56CCC(C)(C)C[C@H]5C5=CCC7[C@@]8(C)C[C@H](O)[C@H](O[C@@H]9O[C@H](C(=O)O)[C@@H](O)[C@H](O)[C@H]9O)[C@@](C)(CO)C8[C@H](O)C[C@@]7(C)[C@]5(C)CC6)OC[C@H](O)[C@@H]4O)O[C@H]3C)OC[C@H]2O)[C@H](O)[C@H](O)[C@H]1O (stereo partly specified) | % | -17.9 |
| CCn1cc(C2=NOC(C(=O)Nc3c(C)n(C)n(-c4ccccc4)c3=O)C2)c(C)n1 (stereo unspecified) | % | 1.73 |

stdin: Given COc1ccccc1-n1c(SCC(=O)Nc2nc3ccc(C)cc3s2)nc2c(c1=O)SCC2 , state its recorded max response.
stdout: 2.47

stdin: Given C/C=C/C1=CC2=CC(=O)C(C)(O)C(OC(=O)c3c(C)cc(O)cc3O)C2CO1 (stereo unspecified) , state its recorded max response.
stdout: 1.95

stdin: Given O=C(c1ccc(F)cc1)C1CCN(CCn2c(=O)nc3n(c2=O)CCCC3)CC1 , state its recorded max response.
stdout: 3.3

stdin: Given CCC1CC2C(C)=CC3CCCCC3C2(C)C2(OC(=O)C(C)(O)OC2=O)O1 (stereo unspecified) , state its recorded max response.
stdout: 0.081

* * *

Quick reference for activity change, negative = thiol reactive among some compounds
- MEASUREMENT PROTOCOL: Primary fluorescence-based thiol-reactive (MSTI) qHTS assay for identification of artifact compounds. (AID 1845221);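 also: thiol-reactive compounds lower the probe fluorescence signal; nearly all actives have a fitted effect of over 65% in size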
- EXPERIMENTAL SETUP: MSTI thiol-reactivity probe, 1 h; series mostly up to 53.8 µM
Records with an inconclusive call do not appear. Calls of active or inactive are those of the source. Calls follow the shape of the dose curve; as a rule, active = well fitted inhibition curve with a large enough effect; inconclusive = small, poorly fitted or top-dose-only effect; inactive = no such curve, though single readings can be large or run the other way. Where a SMILES comes first, the peptide text is derived from it.

The following compounds have reported results that may help.
| COMPOUND | OBS VALUE |
| --- | --- |
| C=C[C@@]1(C)CC(=O)C2[C@](C)(O1)[C@@H](OC(C)=O)[C@@H](O)[C@H]1C(C)(C)CCC[C@]21C (some centres undefined) | 58.5% [at 11.5 µM] (inactive) |
| C[C@@H]1O[C@@H](O[C@H]2[C@H](O[C@H]3CC[C@@]4(C)C(CC[C@]5(C)C4CC=C4C6CC(C)(C)CC[C@]6(C(=O)O[C@@H]6O[C@H](CO[C@@H]7O[C@H](CO)[C@@H](O[C@@H]8O[C@@H](C)[C@H](O)[C@@H](O)[C@H]8O)[C@H](O)[C@H]7O)[C@@H](O)[C@H](O)[C@H]6O)CC[C@]45C)[C@]3(C)CO)OC[C@H](O)[C@@H]2O)[C@H](O)[C@H](O)[C@H]1O (some centres undefined) | 181% [at 11.5 µM] (inactive) |

stdin: Given CC(=O)OC[C@@]12[C@H](O)C[C@]3(C)C(=CCC4[C@@]5(C)CC[C@H](O[C@@H]6O[C@H](C(=O)O)[C@@H](O[C@@H]7O[C@H](CO)[C@@H](O)[C@H](O)[C@H]7O)[C@H](O)[C@H]6O[C@@H]6O[C@H](CO)[C@@H](O)[C@H](O)[C@H]6O)[C@](C)(CO)C5CC[C@]43C)[C@@H]1CC(C)(C)[C@@H](OC(C)=O)[C@@H]2O (some centres undefined) , state its recorded activity change, negative = thiol reactive.
stdout: 182% [at 11.5 µM] (inactive)

stdin: Given CC1(C)CC2C3=CCC4C5(C)CCC(OC6OC(CO)C(O)C(OC7OC(CO)C(O)C(OC8OC(CO)C(O)C(OC9OC(COC%10OC(CO)C(O)C(O)C%10O)C(O)C(O)C9O)C8O)C7O)C6O)C(C)(C)C5CCC4(C)C3(C)CCC2(C(=O)O)CC1O (centres undefined) , state its recorded activity change, negative = thiol reactive.
stdout: 31.3% [at 11.5 µM] (inactive)

stdin: Given C[C@@H](O)[C@H](N)C(=O)N1CCC[C@H]1C(=O)N1CCC[C@H]1C(=O)N[C@H](C(N)=O)[C@@H](C)O (H-TPPT-NH2) , state its recorded activity change, negative = thiol reactive.
stdout: -5.11% [at 11.5 µM] (inactive)

stdin: Given CO[C@H]1C=C2C(CC[C@H](O[C@@H]3O[C@H](CO)[C@@H](O)[C@@H](O)[C@H]3O)C2(C)C)[C@]2(C)CC[C@]3(C)C([C@H](C)C(O)C(C=C(C)C)O[C@@H]4O[C@H](CO)[C@@H](O)[C@@H](O)[C@H]4O)CC[C@@]3(C)C12 (some centres undefined) , state its recorded activity change, negative = thiol reactive.
stdout: 133% [at 11.5 µM] (inactive)

stdin: Given CNC(=O)[C@H]1O[C@@H](n2cnc3c(NCc4ccc(N)c(I)c4)ncnc32)[C@H](O)[C@@H]1O , state its recorded activity change, negative = thiol reactive.
stdout: 20.2% [at 11.5 µM] (inactive)

stdin: Given CC1=CC[C@]2(C(=O)O[C@@H]3O[C@H](CO[C@@H]4O[C@H](CO)[C@@H](O[C@@H]5O[C@@H](C)[C@H](O)[C@@H](O)[C@H]5O)[C@H](O)[C@H]4O)[C@@H](O)[C@H](O)[C@H]3O)CC[C@]3(C)C(CCC4[C@@]5(C)C[C@@H](O)[C@H](O)[C@@](C)(CO)C5CC[C@]43C)C2C1C (some centres undefined) , state its recorded activity change, negative = thiol reactive.
stdout: 137% [at 11.5 µM] (inactive)

Reference source: PubChem BioAssay (NCATS)
